- System: C6 rat glial cells
- experiment-notes: MTT cytotoxicity assay, C6
- Format: cell-based
- test-parameters: 24 h
LD50 Based on MTT Assay, C6 values by entry

• Cc1cc2c(c(C)c1CCO)C(=O)[C@H](C)C2 = >5,000 µM
• Cc1cc2c(c(C)c1CCOC1OC(CO)C(O)C(O)C1O)C(=O)C(C)(C)C2O [(3S)-Pteroside D, (3S)-pteroside D] = >5,000 µM
• Cc1cc2c(c(C)c1CCOC1OC(CO)C(O)C(O)C1O)C(=O)C(C)(CO)C2 [(2S)-Pteroside A, (2S)-pteroside A] = >5,000 µM

Attention now turns to another entry.
Fill in the blank: the reported LD50 Based on MTT Assay, C6 of Cc1cc2c(c(C)c1CCO)C(=O)C(C)(C)C2 is ____.
1,850 ± 65 µM

---

- study-system: horse serum BChE (Equus caballus)
- Construct: horse serum BChE (EC 3.1.1.8); purchased Sigma-Aldrich Co; host or cells: horse serum
- Sequence (P81908 whole entry): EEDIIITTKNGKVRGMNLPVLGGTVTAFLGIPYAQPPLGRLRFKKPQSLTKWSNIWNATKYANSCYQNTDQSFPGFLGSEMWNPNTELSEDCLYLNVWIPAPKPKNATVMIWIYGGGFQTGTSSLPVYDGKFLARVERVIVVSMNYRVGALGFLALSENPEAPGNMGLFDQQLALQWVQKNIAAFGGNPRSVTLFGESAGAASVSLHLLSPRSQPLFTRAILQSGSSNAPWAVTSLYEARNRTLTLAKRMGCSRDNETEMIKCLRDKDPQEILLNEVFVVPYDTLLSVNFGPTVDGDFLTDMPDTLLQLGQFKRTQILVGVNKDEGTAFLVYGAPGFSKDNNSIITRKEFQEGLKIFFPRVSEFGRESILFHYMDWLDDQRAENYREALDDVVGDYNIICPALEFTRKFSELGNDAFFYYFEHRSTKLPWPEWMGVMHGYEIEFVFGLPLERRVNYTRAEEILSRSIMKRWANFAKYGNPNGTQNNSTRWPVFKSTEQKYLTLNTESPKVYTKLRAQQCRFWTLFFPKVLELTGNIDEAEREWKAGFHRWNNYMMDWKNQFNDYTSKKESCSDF
- experiment-notes: In vitro cholinesterase enzyme assay (Ellman), BChE
- Type: biochemical
- test-parameters: mean ± S.D. of three experiments; read-out: IC50 BChE
IC50 values by entry
Provide the reading as a plain figure in µM.

Solved cases below.
* Cc1cc2c(c(C)c1CCO[C@@H]1O[C@H](CO)[C@@H](O)[C@H](O)[C@H]1O)C(=O)[C@@H](C)[C@H]2O [(2S,3R)-Pteroside C, (2S,3R)-pteroside C] | 13
* Cc1cc2c(c(C)c1CCO[C@@H]1O[C@H](CO)[C@@H](O)[C@H](O)[C@H]1O)C(=O)C(C)(C)C2 [Pteroside Z, pteroside Z] | 5.31
* Cc1cc2c(c(C)c1CCO)C(=O)C(C)(COC1OC(CO)C(O)C(O)C1O)C2 [(2S)-Pteroside A2, (2S)-pteroside A2] | 119
* Cc1cc2c(c(C)c1CCOC1OC(CO)C(O)C(O)C1O)C(=O)C(C)C2O [(2R,3R)-Pteroside C, (2R,3R)-pteroside C] | 5.29

Fill in the blank: the reported IC50 of Cc1cc2c(c(C)c1CCOC1OC(CO)C(O)C(O)C1O)C(=O)C(C)C2 [(2R)-Pteroside B, (2R)-pteroside B] is ____.
62

---

- experiment-notes: in vitro
- Assay type: in vitro ADME
- test-parameters: pig, PAMPA, pH 7.4; read-out: PAMPA-BBB permeability Pe
property-name: Papp at 4 h, 25 µg/mL (×10⁻⁶ cm/s)
Provide the reading as a plain figure in ×10⁻⁶ cm/s.

- Cc1cc2c(c(C)c1CCO)C(=O)[C@@H](C)[C@H]2O: 2.34

Fill in the blank: the reported Papp at 4 h, 25 µg/mL of Cc1cc2c(c(C)c1CCO)C(=O)[C@H](C)[C@H]2O is ____.
1.98

---

- study-system: Electric eel AChE (Electrophorus electricus, UniProt O42275)
- Construct: purchased Sigma-Aldrich Co
- Sequence (O42275 24-633): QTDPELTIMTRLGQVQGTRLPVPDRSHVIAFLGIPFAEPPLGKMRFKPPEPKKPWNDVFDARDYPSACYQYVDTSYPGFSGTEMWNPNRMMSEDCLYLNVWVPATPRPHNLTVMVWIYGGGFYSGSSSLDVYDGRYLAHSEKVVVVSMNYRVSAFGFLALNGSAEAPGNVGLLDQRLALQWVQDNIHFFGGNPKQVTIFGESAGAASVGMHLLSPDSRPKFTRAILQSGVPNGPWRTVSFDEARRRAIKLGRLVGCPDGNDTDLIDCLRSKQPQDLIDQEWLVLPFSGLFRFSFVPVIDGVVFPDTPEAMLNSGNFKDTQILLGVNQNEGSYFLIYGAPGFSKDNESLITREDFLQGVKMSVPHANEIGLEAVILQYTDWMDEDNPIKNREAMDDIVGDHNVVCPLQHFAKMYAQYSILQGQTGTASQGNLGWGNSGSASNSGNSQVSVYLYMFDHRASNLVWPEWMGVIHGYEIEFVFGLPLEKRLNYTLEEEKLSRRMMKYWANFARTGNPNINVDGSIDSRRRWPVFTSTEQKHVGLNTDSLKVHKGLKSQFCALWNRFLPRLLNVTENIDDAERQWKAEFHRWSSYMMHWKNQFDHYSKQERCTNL
- experiment-notes: Kinetic analysis of AChE inhibition (Dixon and Lineweaver−Burk plots)
- Format: biochemical
- test-parameters: determined by Dixon plot; read-out: Ki AChE
property-name: Ki
Write down the value, and be sure its unit follows.

Solved cases below.
- Cc1cc2c(c(C)c1CCOC1OC(CO)C(O)C(O)C1O)C(=O)C(C)(C)C2O [(3S)-Pteroside D, (3S)-pteroside D]: 23.1 µM
- Cc1cc2c(c(C)c1CCOC1OC(CO)C(O)C(O)C1O)C(=O)C(C)C2 [(2R)-Pteroside B, (2R)-pteroside B]: 4.89 µM

Attention now turns to another entry.
Reported Ki for Electric eel AChE (Electrophorus electricus, UniProt O42275), given Cc1cc2c(c(C)c1CCOC1OC(CO)C(O)C(O)C1O)C(=O)C(C)C2O [(2R,3R)-Pteroside C, (2R,3R)-pteroside C] ?
8.13 µM

---

- study-system: Electric eel AChE (Electrophorus electricus, UniProt O42275)
- Construct: purchased Sigma-Aldrich Co
- experiment-notes: Kinetic analysis of AChE inhibition (Dixon and Lineweaver−Burk plots)
- Assay type: biochemical
- Procedure: The Ki was determined by interpretation of the Dixon plot, with the value of the x-axis intercept taken as −Ki. Dixon plots for AChE inhibition by pterosin derivatives. (2S,3R)-Pterosin C (A), (2R,3R)-pterosin C (B), and (2R)-pterosin B (C) were tested in the presence of substrate concentrations of 0.1 mM (●), 0.3 mM (○), and 0.6 mM (▼). […]
pKi values by entry
Scale note: pKi = -log10(concentration in M).

Solved cases below.
• Cc1cc2c(c(C)c1CCO)C(=O)[C@H](C)C2 = 4.92
• Cc1cc2c(c(C)c1CCO)C(=O)[C@@H](C)[C@H]2O = 4.79

Fill in the blank: the reported pKi of Cc1cc2c(c(C)c1CCO)C(=O)[C@H](C)[C@H]2O is ____.
4.53

---

- Tested on: SH-SY5Y human neuroblastoma
- experiment-notes: MTT cytotoxicity assay, SH-SY5Y
- Format: cell-based
- test-parameters: 24 h
property-name: LD50 Based on MTT Assay, SY-SY5Y

• Cc1cc2c(c(C)c1CCO)C(=O)[C@@H](C)[C@H]2O [(2S,3R)-Pterosin C, (2S,3R)-pterosin C] = 2,940 ± 260 µM
• Cc1cc2c(c(C)c1CCO)C(=O)[C@H](C)C2 [(2R)-Pterosin B, (2R)-pterosin B] = >5,000 µM
• Cc1cc2c(c(C)c1CCO)C(=O)C(C)(COC1OC(CO)C(O)C(O)C1O)C2 [(2S)-Pteroside A2, (2S)-pteroside A2] = 1,010 ± 60 µM

Attention now turns to another entry.
Fill in the blank: the reported LD50 Based on MTT Assay, SY-SY5Y of Cc1cc2c(c(C)c1CCO[C@@H]1O[C@H](CO)[C@@H](O)[C@H](O)[C@H]1O)C(=O)[C@@H](C)[C@H]2O [(2S,3R)-Pteroside C, (2S,3R)-pteroside C] is ____.
711 ± 35 µM

---

- System: C6 rat glial cells
- experiment-notes: MTT cytotoxicity assay, C6
- Format: cell-based
- test-parameters: 24 h
LD50 Based on MTT Assay, C6 values by entry

* Cc1c(CCO)c(CO)cc2c1C(=O)[C@@H](C)C2 | >5,000 µM
* Cc1cc2c(c(C)c1CCO)C(=O)C(C)(COC1OC(CO)C(O)C(O)C1O)C2 [(2S)-Pteroside A2, (2S)-pteroside A2] | >5,000 µM
* Cc1cc2c(c(C)c1CCOC1OC(CO)C(O)C(O)C1O)C(=O)C(C)C2 [(2R)-Pteroside B, (2R)-pteroside B] | >5,000 µM

Fill in the blank: the reported LD50 Based on MTT Assay, C6 of Cc1cc2c(c(C)c1CCO)C(=O)[C@H](C)[C@H]2O is ____.
694 ± 9.7 µM

Fill in the blank: the reported LD50 Based on MTT Assay, C6 of Cc1cc2c(c(C)c1CCO)C(=O)[C@@H](C)[C@H]2O is ____.
>5,000 µM

Fill in the blank: the reported LD50 Based on MTT Assay, C6 of Cc1cc2c(c(C)c1CCO[C@@H]1O[C@H](CO)[C@@H](O)[C@H](O)[C@H]1O)C(=O)[C@@H](C)[C@H]2O [(2S,3R)-Pteroside C, (2S,3R)-pteroside C] is ____.
>5,000 µM

Fill in the blank: the reported LD50 Based on MTT Assay, C6 of Cc1cc2c(c(C)c1CCOC1OC(CO)C(O)C(O)C1O)C(=O)C(C)C2O [(2R,3R)-Pteroside C, (2R,3R)-pteroside C] is ____.
>5,000 µM

---

- study-system: BACE1 (human recombinant β-secretase) (Homo sapiens)
- Sequence (P56817 46-501): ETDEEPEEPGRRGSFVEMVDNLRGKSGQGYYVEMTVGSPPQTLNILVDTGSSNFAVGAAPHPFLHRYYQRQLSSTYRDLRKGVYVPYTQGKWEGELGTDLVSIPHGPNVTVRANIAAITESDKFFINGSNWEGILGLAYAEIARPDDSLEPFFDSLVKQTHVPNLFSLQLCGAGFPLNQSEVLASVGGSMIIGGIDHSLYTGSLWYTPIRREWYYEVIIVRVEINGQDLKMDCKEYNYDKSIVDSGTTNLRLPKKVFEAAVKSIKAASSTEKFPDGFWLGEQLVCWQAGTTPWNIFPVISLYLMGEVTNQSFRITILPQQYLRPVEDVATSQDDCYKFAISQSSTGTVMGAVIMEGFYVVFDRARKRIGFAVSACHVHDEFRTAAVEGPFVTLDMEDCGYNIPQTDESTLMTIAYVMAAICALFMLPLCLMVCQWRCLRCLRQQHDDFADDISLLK
- experiment-notes: In vitro BACE1 FRET enzyme assay
- Type: biochemical
- test-parameters: mean ± S.D. of three experiments
property-name: IC50 (µM)
Provide the reading as a plain figure in µM.

- Cc1cc2c(c(C)c1CCO)C(=O)C(C)(COC1OC(CO)C(O)C(O)C1O)C2 [(2S)-Pteroside A2, (2S)-pteroside A2]: 94.4
- Cc1cc2c(c(C)c1CCO[C@@H]1O[C@H](CO)[C@@H](O)[C@H](O)[C@H]1O)C(=O)[C@@H](C)[C@H]2O [(2S,3R)-Pteroside C, (2S,3R)-pteroside C]: 28.9
- Cc1cc2c(c(C)c1CCOC1OC(CO)C(O)C(O)C1O)C(=O)C(C)(C)C2O [(3S)-Pteroside D, (3S)-pteroside D]: 10.7
- Cc1cc2c(c(C)c1CCO)C(=O)[C@H](C)C2: 29.6
- Cc1cc2c(c(C)c1CCO)C(=O)C(C)(C)C2O (stereo in doubt): 92.5

Attention now turns to another entry.
Reported IC50 for BACE1 (human recombinant β-secretase) (Homo sapiens), given Cc1c(CCO)c(CO)cc2c1C(=O)[C@@H](C)C2 ?
67.1

Source of measurements: paper PMC6372667
